- Tested on: G-401 tumor spheroids, viability % test/control
- assay.notes: Anticancer human tumor G-401 cell line growth inhibition;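 also: spheroids exposed to compound for 7 days; 100% = DMSO vehicle-treated spheroids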
- condition.parameters: second compound 0.00949 µM; first compound 0.0949 µM; stronger effect = lower value; spheroids with HUVEC and MSC
measure: viability, T/C (%)
Give a bare numeral; the unit % is implied.

Examples with their reported viability, T/C follow.
compound="CNCc1ccc(-c2cc(-c3nc(-c4ccc(S(=O)(=O)C(C)C)cc4)cnc3N)on2)cc1 + CC[C@@]1(O)C(=O)OCc2c1cc1n(c2=O)Cc2cc3c(CN(C)C)c(O)ccc3nc2-1" recorded_measurement=39.5
compound="Cc1sc2c(c1C)C(c1ccc(Cl)cc1)=NC(CC(=O)Nc1ccc(O)cc1)c1nnc(C)n1-2 (centres undefined) + CC[C@@]1(O)C(=O)OCc2c1cc1n(c2=O)Cc2cc3c(CN(C)C)c(O)ccc3nc2-1" recorded_measurement=22.1
compound="Cn1ncnc1[C@H]1c2n[nH]c(=O)c3cc(F)cc(c23)N[C@@H]1c1ccc(F)cc1 + CC[C@@]1(O)C(=O)OCc2c1cc1n(c2=O)Cc2cc3c(CN(C)C)c(O)ccc3nc2-1" recorded_measurement=11.5

Read the next record carefully.
Problem: Recorded viability, T/C for O=C(c1cc(Cc2n[nH]c(=O)c3ccccc23)ccc1F)N1CCN(C(=O)C2CC2)CC1 + CC[C@@]1(O)C(=O)OCc2c1cc1n(c2=O)Cc2cc3c(CN(C)C)c(O)ccc3nc2-1 , please?
Result: 18.2

---

- Test system: G-401 tumor spheroids, viability % test/control
- assay.notes: Anticancer human tumor G-401 cell line growth inhibition;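 also: spheroids exposed to compound for 7 days; 100% = DMSO vehicle-treated spheroids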
- condition.parameters: second compound 0.0003 µM; first compound 0.0316 µM; stronger effect = lower value; spheroids with HUVEC and MSC
measure: viability, T/C (%)
Give a bare numeral; the unit % is implied.

Examples with their reported viability, T/C follow.
compound="COc1ccc([C@@H](O)c2cc(-c3ncnc4cc(N5CCOCC5)ccc34)c(F)cc2Cl)nn1 + COc1cc2c(cc1O)CCNC21CSC2c3c(OC(C)=O)c(C)c4c(c3C(COC1=O)N1C(O)C3Cc5cc(C)c(OC)c(O)c5C(C21)N3C)OCO4" measure="viability, T/C" recorded_measurement=40
compound="COc1cc(C)[nH]c(=O)c1CN1CCc2c(Cl)cc(C(OC)C3COC3)c(Cl)c2C1=O (stereo unspecified) + COc1cc2c(cc1O)CCNC21CSC2c3c(OC(C)=O)c(C)c4c(c3C(COC1=O)N1C(O)C3Cc5cc(C)c(OC)c(O)c5C(C21)N3C)OCO4" measure="viability, T/C" recorded_measurement=33.1
compound="Cc1cc(C)c(CNC(=O)c2cc(-c3ccc(CN4CCOCC4)cc3)cc3c2cnn3C2CCCC2)c(=O)[nH]1 + COc1cc2c(cc1O)CCNC21CSC2c3c(OC(C)=O)c(C)c4c(c3C(COC1=O)N1C(O)C3Cc5cc(C)c(OC)c(O)c5C(C21)N3C)OCO4" measure="viability, T/C" recorded_measurement=43.3
compound="CC(C)n1c(=O)n(C)c2cnc3cc(F)c(-c4ccc(OCCCN5CCCCC5)nc4)cc3c21 + COc1cc2c(cc1O)CCNC21CSC2c3c(OC(C)=O)c(C)c4c(c3C(COC1=O)N1C(O)C3Cc5cc(C)c(OC)c(O)c5C(C21)N3C)OCO4" measure="viability, T/C" recorded_measurement=15.6
compound="CC1COCCN1c1cc(-c2ccnn2C)c2ccnc(-c3ccn[nH]3)c2n1 (stereo unspecified) + COc1cc2c(cc1O)CCNC21CSC2c3c(OC(C)=O)c(C)c4c(c3C(COC1=O)N1C(O)C3Cc5cc(C)c(OC)c(O)c5C(C21)N3C)OCO4" measure="viability, T/C" recorded_measurement=13.1

Read the next record carefully.
Problem: Recorded viability, T/C for [2H]c1nc(C)nc([2H])c1-c1cc(NC[C@@H](C)c2cccc3c(C(=O)NC)ccnc23)ncn1 + COc1cc2c(cc1O)CCNC21CSC2c3c(OC(C)=O)c(C)c4c(c3C(COC1=O)N1C(O)C3Cc5cc(C)c(OC)c(O)c5C(C21)N3C)OCO4 , please?
Result: 36.1

---

Each item that follows carries a reported viability, T/C.
- Tested on: G-401 tumor spheroids, viability % test/control
- assay.notes: Anticancer human tumor G-401 cell line growth inhibition;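 also: spheroids exposed to compound for 7 days; 100% = DMSO vehicle-treated spheroids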
- condition.parameters: second compound 31.6 µM; first compound 0.949 µM; stronger effect = lower value; spheroids with HUVEC and MSC
Give a bare numeral; the unit % is implied.

Examples with their reported viability, T/C follow.
compound="Cn1ncnc1[C@H]1c2n[nH]c(=O)c3cc(F)cc(c23)N[C@@H]1c1ccc(F)cc1 + Cn1nnc2c(C(N)=O)ncn2c1=O" measure="viability, T/C" recorded_measurement=10.4
compound="Cc1sc2c(c1C)C(c1ccc(Cl)cc1)=NC(CC(=O)Nc1ccc(O)cc1)c1nnc(C)n1-2 (centres undefined) + Cn1nnc2c(C(N)=O)ncn2c1=O" measure="viability, T/C" recorded_measurement=20.5

Problem: Recorded viability, T/C for CNCc1ccc(-c2cc(-c3nc(-c4ccc(S(=O)(=O)C(C)C)cc4)cnc3N)on2)cc1 + Cn1nnc2c(C(N)=O)ncn2c1=O , please?
Result: 49

Problem: Recorded viability, T/C for O=C(c1cc(Cc2n[nH]c(=O)c3ccccc23)ccc1F)N1CCN(C(=O)C2CC2)CC1 + Cn1nnc2c(C(N)=O)ncn2c1=O , please?
Result: 79

---

- System: G-401 tumor spheroids, viability % test/control
- assay.notes: Anticancer human tumor G-401 cell line growth inhibition;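 also: spheroids exposed to compound for 7 days; 100% = DMSO vehicle-treated spheroids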
- condition.parameters: second compound 10 µM; first compound 3.16 µM; stronger effect = lower value; spheroids with HUVEC and MSC
measure: viability, T/C (%)
Give a bare numeral; the unit % is implied.

Examples with their reported viability, T/C follow.
compound="CC(C)n1c(=O)n(C)c2cnc3cc(F)c(-c4ccc(OCCCN5CCCCC5)nc4)cc3c21 + Cn1nnc2c(C(N)=O)ncn2c1=O" measure="viability, T/C" recorded_measurement=101
compound="COc1ccc([C@@H](O)c2cc(-c3ncnc4cc(N5CCOCC5)ccc34)c(F)cc2Cl)nn1 + Cn1nnc2c(C(N)=O)ncn2c1=O" measure="viability, T/C" recorded_measurement=20.9
compound="[2H]c1nc(C)nc([2H])c1-c1cc(NC[C@@H](C)c2cccc3c(C(=O)NC)ccnc23)ncn1 + Cn1nnc2c(C(N)=O)ncn2c1=O" measure="viability, T/C" recorded_measurement=108
compound="COc1cc(C)[nH]c(=O)c1CN1CCc2c(Cl)cc(C(OC)C3COC3)c(Cl)c2C1=O (stereo unspecified) + Cn1nnc2c(C(N)=O)ncn2c1=O" measure="viability, T/C" recorded_measurement=30.4
compound="Cc1cc(C)c(CNC(=O)c2cc(-c3ccc(CN4CCOCC4)cc3)cc3c2cnn3C2CCCC2)c(=O)[nH]1 + Cn1nnc2c(C(N)=O)ncn2c1=O" measure="viability, T/C" recorded_measurement=82.6

Read the next record carefully.
Problem: Recorded viability, T/C for CC1COCCN1c1cc(-c2ccnn2C)c2ccnc(-c3ccn[nH]3)c2n1 (stereo unspecified) + Cn1nnc2c(C(N)=O)ncn2c1=O , please?
Result: 16.4

---

- Tested on: G-401 tumor spheroids, viability % test/control
- assay.notes: Anticancer human tumor G-401 cell line growth inhibition; active means viability on the fitted dose curve at most 10% of control; inactive means the rest;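 also: spheroids exposed to compound for 7 days; 100% = DMSO vehicle-treated spheroids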
- condition.parameters: second compound 100 µM; first compound 0.949 µM; spheroids with HUVEC and MSC
# valid calls are 1.0 (active), 0.0 (inactive); nothing else

molecule="CNCc1ccc(-c2cc(-c3nc(-c4ccc(S(=O)(=O)C(C)C)cc4)cnc3N)on2)cc1 + Cn1nnc2c(C(N)=O)ncn2c1=O" assigned_class=0.0
molecule="Cn1ncnc1[C@H]1c2n[nH]c(=O)c3cc(F)cc(c23)N[C@@H]1c1ccc(F)cc1 + Cn1nnc2c(C(N)=O)ncn2c1=O" assigned_class=1.0
molecule="O=C(c1cc(Cc2n[nH]c(=O)c3ccccc23)ccc1F)N1CCN(C(=O)C2CC2)CC1 + Cn1nnc2c(C(N)=O)ncn2c1=O" assigned_class=0.0

Problem: // outcome(item) with item = Cc1sc2c(c1C)C(c1ccc(Cl)cc1)=NC(CC(=O)Nc1ccc(O)cc1)c1nnc(C)n1-2 (centres undefined) + Cn1nnc2c(C(N)=O)ncn2c1=O
Result: 0.0

---

- System: G-401 tumor spheroids, viability % test/control
- assay.notes: Anticancer human tumor G-401 cell line growth inhibition; active = viability on the fitted dose curve at most 10% of control; inactive = the rest;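 also: spheroids exposed to compound for 7 days; 100% = DMSO vehicle-treated spheroids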
- condition.parameters: second compound 100 µM; first compound 3 µM; spheroids with HUVEC and MSC
# valid calls are active, inactive; nothing else

Reference set, count: 2
compound="CNCc1ccc(-c2cc(-c3nc(-c4ccc(S(=O)(=O)C(C)C)cc4)cnc3N)on2)cc1 + Cn1nnc2c(C(N)=O)ncn2c1=O" assigned_class=inactive
compound="Cc1sc2c(c1C)C(c1ccc(Cl)cc1)=NC(CC(=O)Nc1ccc(O)cc1)c1nnc(C)n1-2 (centres undefined) + Cn1nnc2c(C(N)=O)ncn2c1=O" assigned_class=active

Problem: // outcome(item) with item = O=C(c1cc(Cc2n[nH]c(=O)c3ccccc23)ccc1F)N1CCN(C(=O)C2CC2)CC1 + Cn1nnc2c(C(N)=O)ncn2c1=O
Result: inactive

Problem: // outcome(item) with item = Cn1ncnc1[C@H]1c2n[nH]c(=O)c3cc(F)cc(c23)N[C@@H]1c1ccc(F)cc1 + Cn1nnc2c(C(N)=O)ncn2c1=O
Result: active
